# System: Gram-negative bacteria
# method-description: Geometric mean of MIC and therapeutic index
# Type: cell-based
# condition-summary: MHC/GM; 128 μm used when 50% hemolysis not observed at 128 μm
Where no end group is shown, it is not given here.
quantity-measured: Therapeutic index (TI), Gram-negative bacteria

[
  {
    "substance": "ASVVNKLTGGVAGLLK-NH2 [TP, reference compound]",
    "value-measured": 1.00
  },
  {
    "substance": "ASVVKKLTKGVAKLLK-NH2 [TP(i+4) 1&2]",
    "value-measured": 12.70
  },
  {
    "substance": "AKVVNKLTGGVAGLLK-NH2 [TP(i+4) 3]",
    "value-measured": 1.00
  },
  {
    "substance": "ASVVKKLTKGVAGLLK-NH2 [TP(i+4) 1]",
    "value-measured": 2.83
  },
  {
    "substance": "AKVVNKLTGKVAGLLK-NH2 [TP(i+4) 3&4]",
    "value-measured": 1.12
  },
  {
    "substance": "ASVVKKWTKGWAKLLK-NH2 [TP(i+4) 1&2&6]",
    "value-measured": 10.08
  }
]
